meta.source: patent US20080161419A1

System tested: D2 receptor (Homo sapiens, UniProt P14416)
Sequence (P14416 whole entry): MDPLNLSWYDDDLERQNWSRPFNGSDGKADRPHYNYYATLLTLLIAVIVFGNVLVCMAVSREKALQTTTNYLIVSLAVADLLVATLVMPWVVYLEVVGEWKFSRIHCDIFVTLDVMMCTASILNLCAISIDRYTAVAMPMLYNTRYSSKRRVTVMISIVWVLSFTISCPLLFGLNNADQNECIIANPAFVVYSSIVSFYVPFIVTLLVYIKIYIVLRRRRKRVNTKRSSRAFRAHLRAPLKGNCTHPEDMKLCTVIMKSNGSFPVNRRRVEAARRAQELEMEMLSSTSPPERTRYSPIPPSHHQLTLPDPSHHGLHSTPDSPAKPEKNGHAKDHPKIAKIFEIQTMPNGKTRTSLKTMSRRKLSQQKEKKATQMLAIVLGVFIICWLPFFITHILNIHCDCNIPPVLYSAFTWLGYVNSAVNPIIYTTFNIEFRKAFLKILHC
Assay protocol: Affinity for other receptors: D2
pIC50: −log10 of the molar value.
Endpoint label: pIC50

Recorded pIC50 for Cl.NC(N)=NC(=O)c1ccc2c(c1)C(O)c1ccccc1-2 (stereo not shown) [Preparation 3, hydrochloride] with D2 receptor (Homo sapiens, UniProt P14416), please?
≤ 6.00

====

System tested: 5-HT4 receptor (Homo sapiens)
Sequence (Q13639 whole entry): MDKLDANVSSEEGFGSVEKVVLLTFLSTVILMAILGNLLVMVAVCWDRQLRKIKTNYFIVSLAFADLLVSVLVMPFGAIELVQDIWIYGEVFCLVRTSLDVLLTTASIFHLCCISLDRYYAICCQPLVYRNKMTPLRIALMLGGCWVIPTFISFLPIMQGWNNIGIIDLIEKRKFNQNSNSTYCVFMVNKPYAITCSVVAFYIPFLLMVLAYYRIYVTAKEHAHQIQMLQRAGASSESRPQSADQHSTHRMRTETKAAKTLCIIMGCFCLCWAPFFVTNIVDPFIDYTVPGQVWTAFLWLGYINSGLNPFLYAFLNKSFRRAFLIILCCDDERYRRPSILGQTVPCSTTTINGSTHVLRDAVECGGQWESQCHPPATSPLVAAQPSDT
pIC50: −log10 of the molar value.
Endpoint label: pIC50

Fill in the blank: the reported pIC50 of Cl.NC(N)=NC(=O)c1ccc2c(c1)C(O)c1ccccc1-2 (stereo not shown) [Preparation 3, hydrochloride] is ____.
≤ 6.00
